target: UniProt:P52332; test: Inhibition of Jak1 in mouse BA/F3 cells expressing TEL-Jak1 assessed as inhibition of STAT5 phosphorylation by Western blotting analysis
Sequence (P52332 whole entry): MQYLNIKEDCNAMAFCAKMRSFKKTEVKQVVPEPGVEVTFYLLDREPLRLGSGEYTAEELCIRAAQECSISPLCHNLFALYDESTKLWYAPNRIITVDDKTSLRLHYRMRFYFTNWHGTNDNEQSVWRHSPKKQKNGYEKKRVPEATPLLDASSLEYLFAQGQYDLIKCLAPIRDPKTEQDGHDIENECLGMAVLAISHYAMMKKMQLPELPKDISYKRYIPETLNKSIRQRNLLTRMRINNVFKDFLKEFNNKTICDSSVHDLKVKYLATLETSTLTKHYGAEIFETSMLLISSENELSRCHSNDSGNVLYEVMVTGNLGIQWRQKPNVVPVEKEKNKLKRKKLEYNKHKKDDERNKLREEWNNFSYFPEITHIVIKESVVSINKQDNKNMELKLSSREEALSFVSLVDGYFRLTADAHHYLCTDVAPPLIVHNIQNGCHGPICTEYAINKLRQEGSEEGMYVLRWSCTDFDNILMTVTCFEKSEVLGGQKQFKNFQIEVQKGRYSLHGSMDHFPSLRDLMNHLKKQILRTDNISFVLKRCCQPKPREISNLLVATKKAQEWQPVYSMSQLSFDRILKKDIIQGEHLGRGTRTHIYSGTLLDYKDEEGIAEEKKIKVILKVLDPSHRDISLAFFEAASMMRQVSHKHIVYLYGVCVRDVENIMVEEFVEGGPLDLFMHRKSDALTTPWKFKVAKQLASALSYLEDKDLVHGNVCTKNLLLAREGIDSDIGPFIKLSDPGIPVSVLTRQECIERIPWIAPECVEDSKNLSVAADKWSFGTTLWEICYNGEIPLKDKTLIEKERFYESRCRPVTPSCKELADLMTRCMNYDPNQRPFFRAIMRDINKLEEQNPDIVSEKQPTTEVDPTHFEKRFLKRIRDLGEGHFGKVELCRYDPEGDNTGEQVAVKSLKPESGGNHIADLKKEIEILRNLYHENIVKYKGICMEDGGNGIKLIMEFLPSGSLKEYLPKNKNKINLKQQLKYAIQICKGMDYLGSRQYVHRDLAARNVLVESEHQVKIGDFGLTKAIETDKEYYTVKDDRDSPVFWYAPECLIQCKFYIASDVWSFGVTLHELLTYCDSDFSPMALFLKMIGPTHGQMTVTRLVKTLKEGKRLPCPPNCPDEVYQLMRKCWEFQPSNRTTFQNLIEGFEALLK
Measure: IC50 (nM)
Numbers only, in nM.

**Query** So what's the measured IC50 for this one? "C[C@H](Nc1nc(Nc2cn(C)cn2)c2cc[nH]c2n1)c1ncc(F)cn1"
**Result** 260

###

target: UniProtKB Q9R117; assay: Inhibition of Tyk2 in mouse BA/F3 cells expressing TEL-Tyk2 assessed as inhibition of STAT5 phosphorylation by Western blotting analysis; conditions: baf3
Sequence (Q9R117 whole entry, looked up): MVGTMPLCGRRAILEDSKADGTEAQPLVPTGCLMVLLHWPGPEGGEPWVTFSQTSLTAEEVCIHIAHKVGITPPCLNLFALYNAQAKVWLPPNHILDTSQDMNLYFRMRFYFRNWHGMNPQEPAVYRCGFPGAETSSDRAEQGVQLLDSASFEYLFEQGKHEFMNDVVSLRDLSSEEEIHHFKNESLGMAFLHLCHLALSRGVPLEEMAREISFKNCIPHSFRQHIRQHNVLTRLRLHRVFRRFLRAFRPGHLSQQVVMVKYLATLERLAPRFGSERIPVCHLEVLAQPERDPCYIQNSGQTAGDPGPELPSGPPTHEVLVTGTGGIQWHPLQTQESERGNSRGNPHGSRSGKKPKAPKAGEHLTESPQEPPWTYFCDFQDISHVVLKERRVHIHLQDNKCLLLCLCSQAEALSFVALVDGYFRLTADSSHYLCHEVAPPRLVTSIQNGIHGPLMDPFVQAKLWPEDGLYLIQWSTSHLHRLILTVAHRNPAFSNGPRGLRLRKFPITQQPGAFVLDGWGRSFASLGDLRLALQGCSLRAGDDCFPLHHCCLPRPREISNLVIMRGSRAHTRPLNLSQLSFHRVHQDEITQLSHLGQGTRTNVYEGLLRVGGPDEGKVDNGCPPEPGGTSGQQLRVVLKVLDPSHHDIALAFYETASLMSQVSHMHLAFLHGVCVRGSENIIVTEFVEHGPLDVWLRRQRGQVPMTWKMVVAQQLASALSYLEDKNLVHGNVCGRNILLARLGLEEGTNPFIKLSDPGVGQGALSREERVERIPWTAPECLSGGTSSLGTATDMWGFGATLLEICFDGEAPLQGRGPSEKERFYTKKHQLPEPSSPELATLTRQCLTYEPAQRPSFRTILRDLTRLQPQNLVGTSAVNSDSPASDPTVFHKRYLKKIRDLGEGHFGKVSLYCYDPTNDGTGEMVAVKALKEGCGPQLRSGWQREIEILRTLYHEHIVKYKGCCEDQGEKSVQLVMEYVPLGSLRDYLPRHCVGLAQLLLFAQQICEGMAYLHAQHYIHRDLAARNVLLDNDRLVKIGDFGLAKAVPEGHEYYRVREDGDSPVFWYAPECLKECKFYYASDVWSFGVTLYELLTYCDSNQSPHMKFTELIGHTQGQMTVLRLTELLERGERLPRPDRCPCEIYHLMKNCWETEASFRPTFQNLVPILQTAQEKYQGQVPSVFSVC
Measure: pIC50
One number for each entry, as −log10 of the molar value.

**Query** So what's the measured pIC50 for this one? "C[C@H](Nc1nc(Nc2cn(C)cn2)c2cc[nH]c2n1)c1ncc(F)cn1"
**Result** 6.62

meta.source: ChEMBL document CHEMBL3112447
